tested on: RCC-JW (Kidney Carcinoma); test: Bliss excess, mean over the matrix (fraction); higher = more synergy;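 note: after 72 h of two-drug dosing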
Measurement label: Bliss excess
Could you keep your reply to the number by itself?

Ask | Please tell me: Bliss excess of CC1(C)CCC(CN2CCN(c3ccc(C(=O)NS(=O)(=O)c4ccc(NCC5CCOCC5)c([N+](=O)[O-])c4)c(Oc4cnc5[nH]ccc5c4)c3)CC2)=C(c2ccc(Cl)cc2)C1 [Venetoclax] + Cc1cc2ncnn2cc1Nc1ncc2c(n1)n(C1CCOCC1)c(=O)n2C [AZD7648] (first compound max 1 µM, 7x7, partner max 10 µM) , system RCC-JW (Kidney Carcinoma)?;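 note: after 72 h of two-drug dosing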
Reply | -0.0431

Ask | Bliss excess of N#Cc1cnc(Nc2cc(NC[C@H]3CNCCO3)c(C(F)(F)F)cn2)cn1 [SRA737] + C=CCn1c(=O)c2cnc(Nc3ccc(N4CCN(C)CC4)cc3)nc2n1-c1cccc(C(C)(C)O)n1 [AZD1775] (first compound max 10 µM, partner max 1 µM) on RCC-JW (Kidney Carcinoma)?
Reply | -0.002

Ask | Form field: Bliss excess recorded for C=CCn1c(=O)c2cnc(Nc3ccc(N4CCN(C)CC4)cc3)nc2n1-c1cccc(C(C)(C)O)n1 [AZD1775] + C1CN(CCC1(C(=O)N[C@@H](CCO)C2=CC=C(C=C2)Cl)N)C3=NC=NC4=C3C=CN4 [Capivasertib] (first compound max 3 µM, partner max 3 µM) with RCC-JW (Kidney Carcinoma) (enter value)
Reply | -0.0527

Ask | What value of Bliss excess on RCC-JW (Kidney Carcinoma) does Cc1c2c(nn1C)CSCc1cc(n(C)n1)CSc1cc(c3ccccc3c1)OCCCc1c(C(=O)O)n(C)c3c-2c(Cl)ccc13 [AZD5991] + Cc1cc2ncnn2cc1Nc1ncc2c(n1)n(C1CCOCC1)c(=O)n2C [AZD7648] (first compound max 1 µM, 7x7, partner max 10 µM) have?
Reply | -0.0349

Ask | Please state recorded Bliss excess (tested on RCC-JW (Kidney Carcinoma)) of COc1cc2c(cc1OCCCCCOc1cc3c(cc1OC)C(=O)N1C=C(C)C[C@H]1C=N3)N=C[C@@H]1CC(C)=CN1C2=O [SG3199] + O=C(c1cc(Cc2n[nH]c(=O)c3ccccc23)ccc1F)N1CCN(C(=O)C2CC2)CC1 [Olaparib] (first compound max 0.001 µM, 7x7, partner max 10 µM);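 note: after 72 h of two-drug dosing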
Reply | -0.0231

Ask | Given the entry O=C(c1cc(Cc2n[nH]c(=O)c3ccccc23)ccc1F)N1CCN(C(=O)C2CC2)CC1 [Olaparib] + CN(CC[C@H](CSC1=CC=CC=C1)NC2=C(C=C(C=C2)S(=O)(=O)NC(=O)C3=CC=C(C=C3)N4CCC(CC4)[C@H](C5=CC=CC=C5C6=CC=C(C=C6)Cl)O)S(=O)(=O)C(F)(F)F)CCO [AZD4320] (first compound max 10 µM, 7x7, partner max 1 µM) , what Bliss excess was observed with RCC-JW (Kidney Carcinoma)?
Reply | -0.0532

Ask | For the record C[C@@H](Oc1cc(-c2cnn(C3CCNCC3)c2)cnc1N)c1c(Cl)ccc(F)c1Cl [Crizotinib] + CC1=C(C(=CC=C1)Cl)NC(=O)C2=CN=C(S2)NC3=CC(=NC(=N3)C)N4CCN(CC4)CCO [Dasatinib] (first compound max 10 µM, 7x7, partner max 2 µM) , what value of Bliss excess is listed for RCC-JW (Kidney Carcinoma)?
Reply | -0.065
